meta.source: patent US4866176A

Each entry below carries its recorded Animals exhibited positive antiarrhythmic/Animals tested.
# Tested on: heart rate
# test-details: Antiarrhythmic effect (chloroform, mice, ip)
# Assay type: in vivo
# assay-setup: 12.5 mg/kg, positive = 1-200 per minute heart rate
metric-name: Animals exhibited positive antiarrhythmic/Animals tested

>>> reported_result("COc1cc(C(=O)N2CCN(c3nc(NC(C)=O)cc4cccnc34)CC2)cc(OC)c1OC")
"1/6"
>>> reported_result("CC(=O)Nc1cc2cccnc2c(N2CCNCC2)n1")
"5/6"
>>> reported_result("CC(=O)Nc1cc2cccnc2c(N2CCN(c3ccc(F)cc3)CC2)n1")
"3/6"
>>> reported_result("CC(=O)Nc1cc2cccnc2c(N2CCN(c3cccc(Cl)c3)CC2)n1")
"4/6"
>>> reported_result("CC(=O)Nc1cc2cccnc2c(N2CCN(C(=O)c3ccccc3)CC2)n1")
"2/6"
